# protocol.details: self-splicing fitness, log relative to wild type (ln ratio); higher = more splicing; Tetrahymena group I intron in knt gene, E. coli kanamycin selection, DiMSum; sequences stand for … in CUCUCU…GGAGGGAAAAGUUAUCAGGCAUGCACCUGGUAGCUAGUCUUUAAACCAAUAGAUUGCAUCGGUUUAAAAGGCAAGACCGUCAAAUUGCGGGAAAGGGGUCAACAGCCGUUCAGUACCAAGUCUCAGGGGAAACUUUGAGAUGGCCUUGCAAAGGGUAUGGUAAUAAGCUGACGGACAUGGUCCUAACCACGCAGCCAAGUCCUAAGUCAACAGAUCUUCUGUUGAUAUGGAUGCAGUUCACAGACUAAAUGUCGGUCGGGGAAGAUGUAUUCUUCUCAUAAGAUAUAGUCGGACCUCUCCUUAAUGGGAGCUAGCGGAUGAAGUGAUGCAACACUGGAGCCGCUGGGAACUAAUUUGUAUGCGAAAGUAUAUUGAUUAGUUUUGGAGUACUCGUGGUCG;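 note: selection with 25 µg/mL kanamycin versus none on LB agar overnight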
# condition.context: 37 °C
Would you kindly list self-splicing fitness (ln) for each of these sequences?
Reply with just the number.

Return reported self-splicing fitness (ln); argument: AGAUAGCAAUAUUACGUCGG
-1.26

Please report the recorded self-splicing fitness (ln) for GCAGAGCAAUAUUACGAACG .
-1.78

Which value of self-splicing fitness (ln) has been reported for UUUCAGCAAUAUUACGAGAA in the records?
-1.49

Sample GAUGAGCAAUAUUACGGAUG — what was its self-splicing fitness (ln)?
-2.89

State the recorded self-splicing fitness (ln) for this entry: CAACAGCAAUAUUACGCGAC
-1.5

Recorded self-splicing fitness (ln) of CAUCAGCAAUAUUACGCCAA , please.
-1.81

Bench note: what self-splicing fitness (ln) did UGACAGCAAUAUUACGAGGA show?
-3.06

Give the measured self-splicing fitness (ln) of ACUUAGCAAUAUUACGUGGA .
-2.7

// query self-splicing fitness (ln) value for entry GUUCAGCAAUAUUACGGCUG
-2.38

For the sequence shown here, UUGGAGCAAUAUUACGGCAA , give the reported self-splicing fitness (ln).
-0.671

Any idea what its self-splicing fitness (ln) is? The sequence is CCCCAGCAAUAUUACGAGCU
-2.85

Which self-splicing fitness (ln) is reported for this sequence? AAUCAGCAAUAUUACGGAUU
-2.74

GET /values?readout=self-splicing fitness (ln)&item= UACGAGCAAUAUUACGCGGG
-2.41

Return reported self-splicing fitness (ln); argument: ACCCAGCAAUAUUACGUCUG
-2.79

# self-splicing fitness (ln) lookup, item CGCUAGCAAUAUUACGGGAA
-2.76

I have this sequence here, UGACAGCAAUAUUACGAAAU , and I need its recorded self-splicing fitness (ln).
-2.74

The origin of these recorded values is the supplement of paper PMC7877785.
